Experiment: Competitive inhibition of human N-terminally His6-tagged N-acetylglucosaminyltransferase 3 expressed in HEK293T cells assessed as GN-GnGnbi-PAs molar ratio level at 100 to 500 uM incubated for 4 hrs using GnGnbi-PA acceptor substrate and UDP-GlcNAc donor substrate by reverse phase HPLC method
Settings: HEK-293T
Activity calls are given as the source filed them. No cut-off for these calls is given here.
Can you answer with just one of these options? 1 (yes) for active, 0 (no) for inactive

These solved cases illustrate the format of a correct answer.
>  <smiles-entry>
CO[C@H]1O[C@H](CO[C@H]2O[C@H](CO)[C@@H](O)[C@H](O)[C@@H]2O)[C@@H](O[C@@H]2O[C@H](CO)[C@@H](O)[C@H](O)[C@H]2NC(C)=O)[C@H](O[C@H]2O[C@H](CO)[C@@H](O)[C@H](O)[C@@H]2O)[C@@H]1O

>  <class>
0 (no)

$$$$
>  <smiles-entry>
CO[C@H]1O[C@H](CO[C@H]2O[C@H](CO)[C@@H](O)[C@H](O)[C@@H]2O[C@@H]2O[C@H](CO)[C@@H](O)[C@H](O)[C@H]2NC(C)=O)[C@@H](O[C@@H]2O[C@H](CO)[C@@H](O)[C@H](O)[C@H]2NC(C)=O)[C@H](O[C@H]2O[C@H](CO)[C@@H](O)[C@H](O)[C@@H]2O[C@@H]2O[C@H](CO)[C@@H](O)[C@H](O)[C@H]2NC(C)=O)[C@@H]1O

>  <class>
1 (yes)

$$$$

For CO[C@H]1O[C@H](CO[C@H]2O[C@H](CO)[C@@H](O)[C@H](O)[C@@H]2O)[C@@H](O)[C@H](O[C@H]2O[C@H](CO)[C@@H](O)[C@H](O)[C@@H]2O)[C@@H]1O , which call appears in the assay record?
0 (no)

Thanks! And CO[C@H]1O[C@H](CO[C@H]2O[C@H](CO)[C@@H](O)[C@H](O)[C@@H]2O[C@@H]2O[C@H](CO)[C@@H](O)[C@H](O)[C@H]2NC(C)=O)[C@@H](O)[C@H](O[C@H]2O[C@H](CO)[C@@H](O)[C@H](O)[C@@H]2O[C@@H]2O[C@H](CO)[C@@H](O)[C@H](O)[C@H]2NC(C)=O)[C@@H]1O ?
1 (yes)
